system: SW480; test: TCF/Wnt firefly luciferase reporter signal relative to plate median (fraction of plate median); higher = higher Wnt reporter signal; conditions: 5 µM; treatment time 24 h; reporter: 7TFP
ENDPOINT LABEL: TCF/Wnt firefly luciferase reporter signal

Answered cases to consult:
{"COMPOUND": "C[C@]12CCC(=O)C(O)=C1CC[C@@H]1[C@@H]2CC[C@]2(C)C(=O)CC[C@@H]12", "REPORTED MEASUREMENT": 1.01}
{"COMPOUND": "CC(C)C[C@H](CN)CC(=O)O", "REPORTED MEASUREMENT": 0.936}
{"COMPOUND": "CC(C)c1ccc2c(c1O)CC[C@H]1C3=C(CC[C@]21C)C(=O)OC3", "REPORTED MEASUREMENT": 1.06}
{"COMPOUND": "O=[N+]([O-])c1ccc(O)c([N+](=O)[O-])c1", "REPORTED MEASUREMENT": 1.03}
{"COMPOUND": "NCC1(CC(=O)O)CCCCC1", "REPORTED MEASUREMENT": 1.1}
{"COMPOUND": "N#C/C(=C\\c1cccc(O)c1)C(=O)O [alpha-CYANO-3-HYDROXYCINNAMIC ACID]", "REPORTED MEASUREMENT": 1.02}
{"COMPOUND": "C[C@@H]1CC[C@@]2(OC1)O[C@H]1[C@@H](O)[C@H]3[C@@H]4CC[C@H]5C[C@@H](O[C@@H]6O[C@H](CO)[C@H](O[C@@H]7O[C@H](CO)[C@@H](O)[C@H](O[C@@H]8OC[C@@H](O)[C@H](O)[C@H]8O)[C@H]7O[C@@H]7O[C@H](CO)[C@H](O)[C@H](O[C@@H]8O[C@H](CO)[C@@H](O)[C@H](O)[C@H]8O)[C@H]7O)[C@H](O)[C@H]6O)[C@H](O)C[C@]5(C)[C@H]4CC[C@]3(C)[C@H]1[C@@H]2C", "REPORTED MEASUREMENT": 1.09}
{"COMPOUND": "C=CCc1ccc2c(c1)OCO2", "REPORTED MEASUREMENT": 0.952}
{"COMPOUND": "CC(=O)O[C@@H]1C[C@H]2C(C)(C)C(=O)C=C[C@]2(C)[C@H]2CC[C@]3(C)C(=CC(=O)O[C@H]3c3ccoc3)[C@@]21C", "REPORTED MEASUREMENT": 0.975}
{"COMPOUND": "N[C@H](CO)Cc1ccccc1", "REPORTED MEASUREMENT": 0.761}

Next, consider the following compound.
Input `c1ccc2c(c1)sc1ccccc12` . Output TCF/Wnt firefly luciferase reporter signal: 0.935
